assayInfo: viability loss in pontine glioma line – cell-based, SU-DIPG-IV, MIPE4.0, CellTiter-Glo, qHTS, dose response (AID 1347063);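 note: compound exposure lasted 48 hours before the viability readout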
conditionsUsed: CellTiter-Glo ATP luminescence
Inconclusive results are not listed. Active and inactive are the calls of the source. No cut-off is given here; in the data, nearly all actives have AC50 up to about 30 µM.
Use one of these outcomes when replying: y = active, n = inactive

Consider the worked cases shown below.
>>> df
                                   compound  assignedlabel
0  CC1(C)O[C@@H]2C[C@H]3[C@@H]4CCC5=CC(=O)C=C[C@]5(C)[C@H]4[C@@H](O)C[C@]3(C)[C@]2(C(=O)CO)O1              n
1  CCCCCNC(=O)N1CCC(CN(Cc2ccc(Cl)cc2)Cc2ccc([N+](=O)[O-])s2)C1 (centres undefined)              y
2  CS(=O)(=O)c1cccc(CNc2nc(Nc3ccc4c(c3)CCC(=O)N4)ncc2C(F)(F)F)c1              y
3  CNc1ccc(C(=O)Oc2cc(ON[N+](=O)N(C)C)c([N+](=O)[O-])cc2C#N)cc1              n
4  CN(C)CCCNC(=O)c1ccc(-c2cc(O)c3ncccc3c2)cc1              n

Prompt line: What call does the record list for CC(=O)Nc1ccc([C@H](C)C(=O)Nc2ncc(C(C)C)s2)cc1 ?
Response line: y

Prompt line: What call does the record list for CCCCCCCCc1ccc(CCC(N)(CO)CO)cc1 ?
Response line: y

Prompt line: What call does the record list for CN(C)CCN1C(=O)c2cccc3cc(N)cc(c23)C1=O ?
Response line: y

Prompt line: What call does the record list for CC1(C)CC(=O)c2c(C(F)(F)F)nn(-c3ccc(C(N)=O)c(NC4CCC(OC(=O)CN)CC4)c3)c2C1 (centres undefined) ?
Response line: y

Prompt line: What call does the record list for Clc1ccc2ncc(-c3cccc(NC4CNC4)n3)n2c1 ?
Response line: y

Prompt line: What call does the record list for N[C@H]1CN(c2c(F)cc3c(=O)c(C(=O)O)cn(C4C[C@H]4F)c3c2Cl)CC12CC2 (some centres undefined) ?
Response line: n

Prompt line: What call does the record list for COc1cc(C)c(Sc2cnc(NC(=O)c3ccc(CNC(C)C(C)(C)C)cc3)s2)cc1C(=O)N1CCN(C(C)=O)CC1 (centres undefined) ?
Response line: y

Prompt line: What call does the record list for CNC(=O)[C@H](CC1=CN=C2C=CCC=C12)NC(=O)[C@@H](CC(=O)NO)CC(C)C ?
Response line: y

Prompt line: What call does the record list for CC(C)(C)c1cc(C(C)(C)C)c(NC(=O)c2c[nH]c3ccccc3c2=O)cc1O ?
Response line: n

Prompt line: What call does the record list for CCCCOc1ccc(C(=O)Nc2ccc(F)cc2F)cc1 ?
Response line: n

Prompt line: What call does the record list for Cn1cc(-c2[nH]c3cc(NC(=O)[C@H](N)C4CCCCC4)cc4c3c2C=NNC4=O)cn1 ?
Response line: y

Prompt line: What call does the record list for C[C@@]12C(=O)OC(=O)[C@@]1(C)C1CCC2O1 ?
Response line: y

Prompt line: What call does the record list for CO[C@H]1/C=C\C=C(\C)C(=O)NC2=CC(=O)C(NCCN(C)C)=C(C[C@@H](C)C[C@H](OC)[C@H](O)[C@@H](C)/C=C(/C)[C@@H]1OC(N)=O)C2=O ?
Response line: y

Prompt line: What call does the record list for COc1ccc(CCN2CCN(CCCc3ccccc3)CC2)cc1OC ?
Response line: n
